tgt: UniProtKB P30969
Sequence (whole entry): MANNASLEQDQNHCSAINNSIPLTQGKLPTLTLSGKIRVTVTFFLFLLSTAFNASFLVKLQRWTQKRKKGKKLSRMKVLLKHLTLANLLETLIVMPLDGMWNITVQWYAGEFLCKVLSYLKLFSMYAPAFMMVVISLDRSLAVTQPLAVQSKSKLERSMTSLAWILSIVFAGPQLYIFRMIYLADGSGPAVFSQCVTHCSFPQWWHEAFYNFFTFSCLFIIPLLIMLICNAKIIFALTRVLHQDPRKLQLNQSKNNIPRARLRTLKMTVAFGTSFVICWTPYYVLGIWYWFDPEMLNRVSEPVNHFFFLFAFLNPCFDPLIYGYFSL
test.method.notes: In vitro potency to inhibit GnRH-mediated LH secretion by cultured pituitary cells relative to [Ac-delta-Pro1,DFpa2,DTrp36]GnRH.
Assay type: functional, cell-based
condition.description: Pituitary gland cell
assay.readout: Relative potency
// no unit string in output, number only

[
  {
    "smiles.data": "CC(=O)N[C@H](Cc1ccc2ccccc2c1)C(=O)N[C@H](Cc1ccc(Cl)cc1)C(=O)N[C@H](Cc1cccnc1)C(=O)N[C@@H](CO)C(=O)N[C@@H](Cc1ccc(NC(=O)CCNc2n[nH]c(N)n2)cc1)C(=O)N[C@H](Cc1ccc(NC(=O)CCNc2n[nH]c(N)n2)cc1)C(=O)N[C@@H](CC(C)C)C(=O)N[C@@H](CCCCNC(C)C)C(=O)N1CCC[C@H]1C(=O)N[C@H](C)N",
    "Relative potency": 0.52
  }
]

Now consider a different compound.
Please state recorded Relative potency (tested on UniProtKB P30969) of "CC(=O)N[C@H](Cc1ccc2ccccc2c1)C(=O)N[C@H](Cc1ccc(Cl)cc1)C(=O)N[C@H](Cc1cccnc1)C(=O)N[C@@H](CO)C(=O)N[C@@H](Cc1ccc(NC(=O)c2n[nH]c(N)n2)cc1)C(=O)N[C@H](Cc1ccc(NC(=O)c2n[nH]c(N)n2)cc1)C(=O)N[C@@H](CC(C)C)C(=O)N[C@@H](CCCCNC(C)C)C(=O)N1CCC[C@H]1C(=O)N[C@H](C)N"
0.65
